Biological target: glucocorticoid receptor (GR) (Homo sapiens, UniProt P04150)
Construct: contains endogenous glucocorticoid receptors; endogenous in cells
Sequence (P04150 1-777): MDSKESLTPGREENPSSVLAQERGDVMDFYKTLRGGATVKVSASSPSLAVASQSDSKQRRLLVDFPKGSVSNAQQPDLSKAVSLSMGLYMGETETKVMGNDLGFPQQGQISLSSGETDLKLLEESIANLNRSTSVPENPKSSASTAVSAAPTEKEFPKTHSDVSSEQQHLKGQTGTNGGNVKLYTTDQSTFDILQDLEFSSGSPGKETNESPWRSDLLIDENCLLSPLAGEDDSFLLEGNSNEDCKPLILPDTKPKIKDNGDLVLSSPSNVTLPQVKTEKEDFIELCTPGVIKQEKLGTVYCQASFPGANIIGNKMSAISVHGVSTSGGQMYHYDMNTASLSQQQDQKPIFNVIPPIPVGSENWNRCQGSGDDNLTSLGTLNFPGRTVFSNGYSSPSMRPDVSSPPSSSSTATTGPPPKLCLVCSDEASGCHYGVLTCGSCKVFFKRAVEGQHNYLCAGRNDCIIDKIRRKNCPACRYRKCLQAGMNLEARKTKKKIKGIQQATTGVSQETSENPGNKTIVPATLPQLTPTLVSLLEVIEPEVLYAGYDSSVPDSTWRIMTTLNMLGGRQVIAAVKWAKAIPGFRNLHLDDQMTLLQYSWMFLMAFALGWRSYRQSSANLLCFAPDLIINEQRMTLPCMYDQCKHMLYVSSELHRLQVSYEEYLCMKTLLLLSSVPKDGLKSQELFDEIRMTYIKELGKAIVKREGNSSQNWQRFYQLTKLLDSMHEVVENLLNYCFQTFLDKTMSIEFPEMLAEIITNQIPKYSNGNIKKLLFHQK
Assay: GR reporter gene assay using SW1353/MMTV-5 cells

| compound | tested_target | Ki, nM |
| --- | --- | --- |
| O=c1[nH]c(=O)c(Cc2cccc(C(F)(F)F)c2)c([C@H]2CC[C@H](c3ccccc3)CC2)[nH]1 [Compound 1] | glucocorticoid receptor (GR) (Homo sapiens, UniProt P04150) | 24 |

* * *

biological target: human recombinant GR (Homo sapiens, UniProt P04150); construct: β-galactosidase enzyme fragment (complementation partner); experiment: GR protein:protein interaction assay (DiscoveRx, CHO-K1, PGC1α)
pKi: −log10 of the molar value.

| compound | pKi |
| --- | --- |
| O=c1[nH]c(=O)c(Cc2cccc(C(F)(F)F)c2)c([C@H]2CC[C@H](c3ccccc3)CC2)[nH]1 [Compound 1] | 6.93 |

* * *

target: human recombinant MR (Homo sapiens, UniProt P08235); construct: β-galactosidase enzyme fragment (complementation partner); assay: MR protein:protein interaction assay (DiscoveRx, CHO-K1, PGC1α)
pKi: −log10 of the molar value.
quantity: pKi

| mol_smiles | quantity | test_value |
| --- | --- | --- |
| O=c1[nH]c(=O)c(Cc2cccc(C(F)(F)F)c2)c([C@H]2CC[C@H](c3ccccc3)CC2)[nH]1 | pKi | 6.90 |

* * *

Target: mineralocorticoid receptor (MR) (Homo sapiens)
Construct: containing endogenous mineralocorticoid and progesterone receptors (PR); endogenous in cells
Sequence (P08235 1-984): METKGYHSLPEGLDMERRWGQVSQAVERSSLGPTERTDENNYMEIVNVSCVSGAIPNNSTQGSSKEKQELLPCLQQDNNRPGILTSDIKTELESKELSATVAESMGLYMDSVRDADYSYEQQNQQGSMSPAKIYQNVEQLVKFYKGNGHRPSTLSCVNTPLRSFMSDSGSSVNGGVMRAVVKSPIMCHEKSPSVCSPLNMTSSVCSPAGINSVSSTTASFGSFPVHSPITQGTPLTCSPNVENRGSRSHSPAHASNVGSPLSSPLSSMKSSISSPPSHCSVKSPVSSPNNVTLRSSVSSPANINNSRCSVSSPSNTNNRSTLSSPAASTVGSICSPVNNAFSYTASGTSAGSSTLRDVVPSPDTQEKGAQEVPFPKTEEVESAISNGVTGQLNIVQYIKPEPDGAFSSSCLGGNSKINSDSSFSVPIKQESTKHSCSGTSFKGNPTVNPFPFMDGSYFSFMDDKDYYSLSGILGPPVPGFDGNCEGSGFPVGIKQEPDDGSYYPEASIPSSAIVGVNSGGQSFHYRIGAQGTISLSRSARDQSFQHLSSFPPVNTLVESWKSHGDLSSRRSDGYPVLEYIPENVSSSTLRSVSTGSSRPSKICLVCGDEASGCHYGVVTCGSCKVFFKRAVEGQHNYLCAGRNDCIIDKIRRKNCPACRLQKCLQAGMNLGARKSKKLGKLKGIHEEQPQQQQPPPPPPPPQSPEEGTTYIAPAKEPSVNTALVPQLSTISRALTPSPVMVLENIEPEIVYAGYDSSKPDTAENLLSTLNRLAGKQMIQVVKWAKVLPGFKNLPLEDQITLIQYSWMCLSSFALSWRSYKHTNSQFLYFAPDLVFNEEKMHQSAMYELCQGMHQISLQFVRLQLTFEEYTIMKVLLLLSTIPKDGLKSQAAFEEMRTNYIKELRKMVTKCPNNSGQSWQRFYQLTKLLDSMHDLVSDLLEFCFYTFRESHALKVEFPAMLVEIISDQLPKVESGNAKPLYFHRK
Assay: MR reporter gene assay using T47D/MMTV-5 cells
Description: As described for the SW1353 cell line above, T47D cells were transfected with the same pMAMneo-Luc plasmid, and stable lines were selected with geneticin. T47D/MMTV-5 calls were distributed in 96-well plates (100 μl) in RPMI640 medium+10% charcoal stripped FCS. The cells were incubated for 24 hours in a CO2 oven.
pKi: −log10 of the molar value.
quantity: pKi

| compound | tested_target | test_value |
| --- | --- | --- |
| O=c1[nH]c(=O)c(Cc2cccc(C(F)(F)F)c2)c([C@H]2CC[C@H](c3ccccc3)CC2)[nH]1 [Compound 1] | mineralocorticoid receptor (MR) (Homo sapiens) | 6.83 |
